Measured self-cleavage of individual entries
B1: CPEB3 Ribozyme (parent)
chain: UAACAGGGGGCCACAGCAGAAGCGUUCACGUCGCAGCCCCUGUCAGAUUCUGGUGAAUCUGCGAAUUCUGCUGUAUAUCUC

Variants of: B1
Assay Remarks: self-cleavage, relative activity (ratio to wild type); higher = more cleavage; in vitro, sequencing

# Query Sequence, self-cleavage
data = [
    ("UAACAGGGGGCCACAGCGGAAGCGUUCACGUCGCAGCCCCUGUCAGAUUCUGGUGAAUCUGCUAAUUCUGCUGUAUAUCUC [A18G G63U]", 1.02),
    ("UAACAGGGGGCCACAGCAGAAGCGUUCACGUCGCAGCCCCUGUCAGAUUCUGGUGAACCUGCGAAUUCUGCUGUAGAUCUC [U58C U76G]", 0.69),
    ("UAACAGGGGGGCACAGCAGAAGCGUUCACGUCGCAGCCCCUGUCAGAUUCUGGUGAAUCGGCGAAUUCUGCUGUAUAUCUC [C11G U60G]", 0.21),
    ("UAUCAGGGGGCCACAGCAGAAGCGUUCACGUCGCAGCCCCAGUCAGAUUCUGGUGAAUCUGCGAAUUCUGCUGUAUAUCUC [A3U U41A]", 0.31),
    ("UAACAGGGGGCCACAGCAGAAGCGUUCACGUCGCAGCCCCUGUCAGAAUCUGGUGAAGCUGCGAAUUCUGCUGUAUAUCUC [U48A U58G]", 0.18),
    ("UAACAGGGGGCCACACCAGAAGCGUUCACGUCGCAGCCCCUGUCAGAUUCGGGUGAAUCUGCGAAUUCUGCUGUAUAUCUC [G16C U51G]", 0.52),
    ("UAACAGGGGGCCACAGCAGAAGCAUUCACGUCGCUGCCCCUGUCAGAUUCUGGUGAAUCUGCGAAUUCUGCUGUAUAUCUC [G24A A35U]", 0.17),
    ("UAACAGGGGGCCACAGCAGAAGCGUUCACGUCGCAGCCCCUGUCAGAUUCUGGUGAAUCAGCGUAUUCUGCUGUAUAUCUC [U60A A64U]", 0.33),
    ("UAACAGGGGACCACAGCAGAAGCGUUCACGUCGCAGCCCCUGUCAGAUUCUGGUGAAUCUGCGAAUUCUGCUGGAUAUCUC [G10A U74G]", 0.14),
    ("UAACAGGGGGCCACAGCGGAAGCGUUCACGUCGCAGCCCCUGUCAGAUACUGGUGAAUCUGCGAAUUCUGCUGUAUAUCUC [A18G U49A]", 0.32),
    ("UUACAGGAGGCCACAGCAGAAGCGUUCACGUCGCAGCCCCUGUCAGAUUCUGGUGAAUCUGCGAAUUCUGCUGUAUAUCUC [A2U G8A]", 0.27),
    ("UAACAGGGGGCCACAGCAGAAGCGUUCACGUCGCAGCCCCUGUCGGAUUCUGGUGAAUCUGCGAAUUCUGCUGUUUAUCUC [A45G A75U]", 0.91),
    ("UAACAGGGGGCCACGGCAGAAGCGUUCACGUCGCAGCCCCUGGCAGAUUCUGGUGAAUCUGCGAAUUCUGCUGUAUAUCUC [A15G U43G]", 0.28),
    ("UAACAGGGGGCCACAGCAGAAGCGUCCACGUCGCAGCCCCUGUCAGAUUCUGGUGAAUCUGCGAAUUCUGCUAUAUAUCUC [U26C G73A]", 0.99),
    ("UAACAGGGGGCCACAGCAGAAGCGUACACGUCGCAGCCCCUGUCAGAUUCUGGUGAAUCUGCGAAUUCUGCUGUAUAACUC [U26A U78A]", 0.67),
    ("UAACAGGGGGCCACAGCAGAAGCGUUCACGUCGCAUCCCCUGUCAGAUUCUGGUGAAUCUGCGAAUUCUGUUGUAUAUCUC [G36U C71U]", 0.1),
    ("UAACAGGGGGCCACAGCAGAAGCGCUCACGUCGCAGCCCCUGUCAGAUUCUGGUGAAUCUGUGAAUUCUGCUGUAUAUCUC [U25C C62U]", 0.11),
    ("UAACAGGGGGCCACAGCAGAAGCGUUCUCGUCGCAGCCCCUGUCAGAUGCUGGUGAAUCUGCGAAUUCUGCUGUAUAUCUC [A28U U49G]", 0.11),
    ("UAACAGGGGGCCACAGCAGAAGCGUUCACGUCGCAGCCCCUGUCAUAUUCUGGUGAAUCUGCGAAUCCUGCUGUAUAUCUC [G46U U67C]", 0.03),
    ("UAACAGGGGGCCACAGCAGAGGCGUUCACGUCGCAGCCCCUGUCAGAUUCAGGUGAAUCUGCGAAUUCUGCUGUAUAUCUC [A21G U51A]", 0.64),
    ("UAACAGGGGGCCACAGCAGAAGCGUUCACGUCGCAGCCCCUGUCAGAUUCUGGUGCAUCUGCGUAUUCUGCUGUAUAUCUC [A56C A64U]", 0.18),
    ("UAACAGUGGGCCACAGCAGAAGCGUUCACGUCGCUGCCCCUGUCAGAUUCUGGUGAAUCUGCGAAUUCUGCUGUAUAUCUC [G7U A35U]", 0.38),
    ("UAACAGGGGGCCACAGCAGAAGCGUUCACGUCGCAGCCCCUGUAAGAUUCUGGUGAAUCUGCGAAUUGUGCUGUAUAUCUC [C44A C68G]", 0.12),
    ("UAACAGGGGGCCAGAGCAGAAGCGCUCACGUCGCAGCCCCUGUCAGAUUCUGGUGAAUCUGCGAAUUCUGCUGUAUAUCUC [C14G U25C]", 0.17),
    ("UAACAGGGGGCCACAGCAGAAGCGCUCACGUCGGAGCCCCUGUCAGAUUCUGGUGAAUCUGCGAAUUCUGCUGUAUAUCUC [U25C C34G]", 0.27),
    ("UAACAGGGGGCCACAGCAGAAGCGUUCACGUCGCAGCCCCUGUCAGAUUCUGGUGAUUCUGCGAAUCCUGCUGUAUAUCUC [A57U U67C]", 0.22),
    ("UAACAGGGGGCCACAGCAGAAGUGUUCACGUCGCAGCACCUGUCAGAUUCUGGUGAAUCUGCGAAUUCUGCUGUAUAUCUC [C23U C38A]", 0.16),
    ("UAACAGGGGACCCCAGCAGAAGCGUUCACGUCGCAGCCCCUGUCAGAUUCUGGUGAAUCUGCGAAUUCUGCUGUAUAUCUC [G10A A13C]", 0.28),
    ("UAACAGGGGGCCACAGCGGACGCGUUCACGUCGCAGCCCCUGUCAGAUUCUGGUGAAUCUGCGAAUUCUGCUGUAUAUCUC [A18G A21C]", 0.4),
    ("UAACAGGGGGCCACAGCAGAAGCGUUCACGUCGCAGCCCCUGUCAGAUUCUGGUGAAUCUGCGUAUUCUGCUGUCUAUCUC [A64U A75C]", 0.5),
    ("UAACAGGGGGCCACAGCAGAAGCGUUCACGUAGCAGCCCCUGUCAGAUUCUGGUGAAUCUGCGAAUUCUGCUCUAUAUCUC [C32A G73C]", 0.17),
    ("UAACAGGGGGCCACAGCAGAAGGGUUCACGUCGCAGCCCCAGUCAGAUUCUGGUGAAUCUGCGAAUUCUGCUGUAUAUCUC [C23G U41A]", 0.1),
    ("UAACAGGGGGCCACAGCAGAAGCGUUCACGUCGCAGCCACUGUCAGAUUCUGGUGAAUCUGCGAAUACUGCUGUAUAUCUC [C39A U67A]", 0.34),
    ("UAACAGGGGGCCACAGCAGAAGCGUUCGCGUCGCAGCCCCUGUCAGAUUCUGGUGAAUCUGCGAAUUCUGCUGUAUAACUC [A28G U78A]", 0.71),
    ("UAACAGGGGGCCACAGCAGAAGCGUUCGCGUCGCAGCCCCUGUCAGAUUCUGGUGAAUCUGCGAAUUCUGCUGUAUUUCUC [A28G A77U]", 0.79),
    ("UAACAGGGGGCCACAGCAGAAGCGUUCACGUCGCAGCCCCUGUCAGAUUCUGGAGAAUCUGCGAAUUCUGCUGUAUGUCUC [U54A A77G]", 1.06),
    ("UAACAGGGGGCCACUGCAGAAGCGUUCACGUCGCAGCCCCUGUCAGAUUCUGGUGAAUCUGCGAAUACUGCUGUAUAUCUC [A15U U67A]", 0.2),
    ("UAACAGGGGGCCUCAGCAGAAGCGUUCACGUCGCAGCUCCUGUCAGAUUCUGGUGAAUCUGCGAAUUCUGCUGUAUAUCUC [A13U C38U]", 0.89),
    ("UAACAAGGGGCCACAGCAGAAGCGUUCACAUCGCAGCCCCUGUCAGAUUCUGGUGAAUCUGCGAAUUCUGCUGUAUAUCUC [G6A G30A]", 0.19),
    ("UAACAGGGGGACACAGCAGAAGCGUUCACGUCGCAGCCCCUGUCAGAUUCUGGUGAAUCUGCGAAUUCCGCUGUAUAUCUC [C11A U69C]", 0.17),
    ("UAACAGGGGCCCACAGCAGAAGCGUUCACGUCGCAGCCCCUGUCAGAUUCUGGUGAAUCUGCGAAUUCUGCUGUAUAUCUC [G10C]", 0.25),
    ("UAACAGGGGGCCACAGCAGAAGCGUUCACGUCGCAGCCCCUGUCAGAUUUUGGUGAAUCUGCGAACUCUGCUGUAUAUCUC [C50U U66C]", 0.45),
]
